system: MOLT-4 leukemia; test: NCI-60 one-dose screen, 48 h; conditions: 10 µM unless noted
Compounds without any hit were thinned out: in the full panel of roughly 83,000, 20% have a hit. The source made the active and inactive calls. Rule for the calls: active = growth percent below 10; inactive = the rest.
Lab note: assign the record to one of Y for active, N for inactive

O=C1/C=C/[C@@H](O)[C@@H]2C[C@@H](O)C[C@H]2/C=C/CCC[C@H](CCc2cccc3ccccc23)O1 | Y
CCOC(=O)c1cc(C(=O)c2ccc(OC)c(OC)c2)n2ccc(/C=C/c3cc[n+](CC(=O)c4ccc(OC)c(OC)c4)cc3)cc12 | N

Fill in: this test's call for O=C(Nc1cccc(C(=O)N2CCc3ccc(Cl)cc32)c1)c1ccco1 is ___
N

Fill in: this test's call for CCCN1[C@@H]2CC[C@H]1/C(=C\c1ccc(OC)c(OC)c1)C(=O)/C2=C/c1ccc(OC)c(OC)c1 is ___
N

Fill in: this test's call for CNC(=O)c1cc(Cn2nc(C)c(NC(=O)Nc3ccc(Cl)c(C(F)(F)F)c3)c2C)ccn1 is ___
N

Fill in: this test's call for c1ccc(Cn2cnc3ccc(-c4nc(-c5ccc6c(c5)ncn6C5CCCCC5)cn5ccnc45)cc32)cc1 is ___
Y

Fill in: this test's call for COc1ccc(/C=C(\C#N)n2nc3cccc(F)c3n2)cc1 is ___
N

Fill in: this test's call for CC(=O)Oc1ccc(/C=N/NC(N)=S)nc1 is ___
N

Fill in: this test's call for Cc1nn(-c2ccccc2)c(Cl)c1/C=C/C(=O)c1ccc(F)cc1 is ___
N

----------
system: SK-MEL-28 melanoma; assay: NCI-60 one-dose screen, 48 h (100 = growth as untreated, 0 = no growth, -100 = all killed); conditions: 10 µM unless noted
About 83,000 compounds went through this panel and 20% of them were active in at least one assay; those are over-represented in the sample as a whole.
Returns 1 if the recorded growth is greater than or equal to 70%, and -1 otherwise.

Cc1cc2nc3c4cc(C=O)ccc4n(CCN(C)C)c3nc2cc1C | -1
CN(C)c1ccc(Nc2c3ccccc3nc3cc(NC(=O)CCN4CCCC4)ccc23)cc1 | -1

Next item in the queue.
I'd appreciate it if you could say whether O=C(Nc1ccc(NC(=O)c2cc(=O)[nH]c3ccccc23)cc1)Nc1cccc(Cl)c1 has growth at least equal to 70%.
1

----------
system: NCI-H226 lung; experiment: NCI-60 one-dose screen, 48 h (100 = growth as untreated, 0 = no growth, -100 = all killed); details: 10 µM unless noted
The panel holds about 83,000 compounds, 20% with a hit somewhere; the sample as a whole holds those more often.
So basically: is growth under 90%? Then yes. Not under? Then no.

COc1cccc(-c2nc3occn3c2-c2ccnc(NCCCNS(=O)(=O)c3ccc(C(F)(F)F)cc3)n2)c1 | yes
COc1cc2c(=O)n(CCCN(C)C)c3c4cc5c(cc4ccc3c2cc1OC)OCO5 | yes
Nc1nc(Nc2ccccc2SSc2ccccc2Nc2nc(N)nc(-c3ccc(C(F)(F)F)cc3)n2)nc(-c2ccc(C(F)(F)F)cc2)n1 | yes
COc1cc2nc(-c3ccc(Cl)cc3)cc(OCCCN3CCC(O)CC3)c2cc1OC | yes

For this molecule, is growth lower than 90%? COc1cc(NC(=O)CSc2nc3ccc(C)cc3c(=O)n2Cc2ccccc2)cc(OC)c1OC
yes

For this molecule, is growth lower than 90%? CCOC(=O)/C(C#N)=C1/NNC(=Nc2cccnc2)S1
no

For this molecule, is growth lower than 90%? C=C(C)[C@@H]1CC[C@]2(C(=O)N[C@@H](Cc3ccccc3)C(=O)OC)CC[C@]3(C)[C@H](CC[C@@H]4[C@@]5(C)CCC(=O)C(C)(C)[C@@H]5CC[C@]43C)[C@@H]12
no

For this molecule, is growth lower than 90%? Cc1cc2c(c(C)c1Cl)C(=O)/C(=C/c1ccc(O)c(O)c1)O2
no

For this molecule, is growth lower than 90%? Cc1ccc(-c2nc3ccccn3c2/C=C2/C(=O)Nc3cc(Cl)ccc32)cc1
no

For this molecule, is growth lower than 90%? COc1cc2nc(-c3ccc(Cl)cc3)cc(OCCCN3CCCCC3)c2cc1OC
yes

For this molecule, is growth lower than 90%? CC(=O)[C@@H]1CC[C@]2(CO)CC[C@]3(C)[C@H](CC[C@@H]4[C@@]5(C)CCCNC(C)(C)[C@@H]5CC[C@]43C)[C@@H]12
no

----------
# growth listing for each entry below
test system: T-47D breast; assay: NCI-60 one-dose screen, 48 h (100 = growth as untreated, 0 = no growth, -100 = all killed); details: 10 µM unless noted
This is part of a sample that, as a whole, favours compounds with a hit. Of some 83,000 tested, about 20% had one in any assay.
A number alone suffices; assume %.

CN(C)c1ccc(C2C(C#N)=C(/N=C/c3ccccc3)Oc3c2ccc2ccccc32)cc1 (stereo not given) | 83.1

Would you kindly share the measured growth for O=S(=O)(NCCNc1nccc(-c2c(-c3cccc(O)c3)nc3occn23)n1)c1cccc(F)c1 ?
73.7

Would you kindly share the measured growth for O=C(CCN1CCCC1)c1ccc([N+](=O)[O-])cc1 ?
88.6

Would you kindly share the measured growth for C=C(C)[C@@H]1CC[C@]2(C(=O)N3CCN(C)CC3)CC[C@]3(C)[C@H](CC[C@@H]4[C@@]5(C)CC[C@H](O)C(C)(C)[C@@H]5CC[C@]43C)[C@@H]12 ?
-73.8

Would you kindly share the measured growth for COC(=O)/C=C1\S/C(=N\NC(=O)c2cc3ccc2/C=C\c2ccc(cc2)/C=C\3)N(Cc2ccccc2)C1=O ?
-6.25

----------
system: UACC-257 melanoma; experiment: NCI-60 one-dose screen, 48 h (100 = growth as untreated, 0 = no growth, -100 = all killed); conditions: 10 µM unless noted
About 83,000 compounds went through this panel and 20% of them were active in at least one assay; those are over-represented in the sample as a whole.
So basically: is growth under 80%? Then Yes. Not under? Then No.

Here are 3 molecules together with their reported answers.
O=C(Nc1cccc(C(=O)N2CCc3ccc(Cl)cc32)c1)c1ccco1 | Yes
C=C1C(=O)O[C@H]2[C@H]1CC/C(C(=O)NCCCCCNC(=O)/C1=C/CC[C@@]3(C)O[C@H]3[C@H]3OC(=O)C(=C)[C@@H]3CC1)=C\CC[C@@]1(C)O[C@@H]21 | No
CNC(=O)c1cccc(Cn2nc(C)c(NC(=O)c3ccc(COc4ccc(C(F)(F)F)cc4C)cc3)c2C)c1 | Yes

For this molecule, is growth lower than 80%? CCc1ccc(CNc2ccc(N3CCOCC3)c(C(=O)O)c2)cc1
No

For this molecule, is growth lower than 80%? CCCCCCCCOc1ccc(/C=N/Nc2cc(C)nc3ccc(Br)cc23)cc1
No

----------
tested on: SN12C renal; experiment: NCI-60 one-dose screen, 48 h (100 = growth as untreated, 0 = no growth, -100 = all killed); details: 10 µM unless noted
Compounds without any hit were thinned out: in the full panel of roughly 83,000, 20% have a hit.
So basically: is growth under 80%? Then yes (1). Not under? Then no (0).

CCN1CCN(CCNc2nccc(-c3c(-c4cccc(OC)c4)nc4occn34)n2)S1(=O)=O | no (0)
CN(C)CC(O)c1ccc(/C=C/c2ccc(Cl)cc2)cc1 (centres undefined) | yes (1)
CCOC(=O)c1ccc2c(c1)ncn2-c1ccc(NC(=O)Nc2cccc(C)c2)cc1 | yes (1)
O=C(/C(=C\c1ccc([N+](=O)[O-])cc1)S(=O)Cc1ccc(F)cc1)c1ccc(F)cc1 (centres undefined) | yes (1)
Cc1ccc(NC(=O)Cc2ccc(/C=C/C(=O)c3ncc[nH]3)cc2)cc1 | yes (1)
N#Cc1c(NCc2ccccc2I)sc2c1CCCCC2 | no (0)
CCN1C(=O)/C(=C/C(=O)OC)S/C1=N\NC(=O)c1cc2ccc1/C=C\c1ccc(cc1)/C=C\2 | no (0)

Next item in the queue.
For this molecule, is growth lower than 80%? O=S(=O)(NCCCNc1nccc(-c2c(-c3cccc(O)c3)nc3occn23)n1)c1ccc(Cl)cc1
yes (1)

----------
Tested on: BT-549 breast
Test: NCI-60 one-dose screen, 48 h
Settings: 10 µM unless noted
Method: Growth inhibition of the BT-549 human tumor cell line is measured as a screen for anti-cancer activity. Cells are grown in 96 well plates and exposed to the test compound for 48 hours. Compounds are tested at a single concentration, which is 10^-5 M for most compounds. The reported endpoint is percent growth (GI% or GIPRCNT), where numbers from 0 - 100% represent growth inhibition, and numbers from -100% - 0 represent cell death. For example, a value of 40 represents 60% growth inhibition. […]
The panel holds about 83,000 compounds, 20% with a hit somewhere; the sample as a whole holds those more often. The source made the active and inactive calls. The calls were made as follows: active = growth percent below 10; inactive = the rest.
Lab note: assign the record to one of 1 for active, 0 for inactive

Here are 3 compounds together with their reported answers.
C[C@@H](Nc1ncnc2ccc(-c3cnc(N)nc3)cc12)c1ccc(F)cc1 | 0
Oc1ccc(OCCOc2ccc(O)cc2)cc1 | 0
CCCCCN1C=C/C(=C\C(=O)N(C)c2ccc(OC(F)(F)F)cc2)c2ccccc21 | 0

Fill in: this test's call for COc1cc(-c2csc(NC(=O)c3cc(F)cc(C(F)(F)F)c3)n2)cc(OC)c1OC is ___
0

Fill in: this test's call for CC(C)N1C(=O)/C(=C2\SC(=S)N(C(C)C)C2=O)SC1=S is ___
0

Fill in: this test's call for Cc1nn(-c2ccccc2)c(Cl)c1/C=N\N=c1/sc2ccccc2n1C is ___
0

Fill in: this test's call for COc1cccc(/C=N/NC(=O)c2cnn3c2NC(c2ccccc2)C3)c1Oc1ccccc1 (stereo not drawn) is ___
0

Fill in: this test's call for Cc1ccc(C(=O)/C(=C\c2ccc([N+](=O)[O-])cc2)S(=O)Cc2ccc(F)cc2)cc1 (stereo not drawn) is ___
1

Fill in: this test's call for COc1ccc(-c2cnc3c(-c4cccc5cnccc45)cnn3c2)cc1 is ___
0

Fill in: this test's call for COc1ccc(/C=C/c2nc(Nc3ccc(S(=O)(=O)NC(C)=O)cc3)c3ccccc3n2)cc1 is ___
0

Fill in: this test's call for COc1ccc(C(=O)c2cc(C)c(OC)c(C)c2)c(OC)c1OC(=O)C(Cl)Cl is ___
0

Fill in: this test's call for O=C(c1nnc(Nc2ccccc2Br)o1)c1c[nH]c2ccccc12 is ___
0

Fill in: this test's call for COc1cc2nc(-c3ccc(Cl)cc3)cc(OCCCN3CCCC3)c2cc1OC is ___
0
